- Subject of test: T1, RhoC Q63L (UniProt P08134 1-190, limits assumed)
- T1 construct: also called RhoC Q63L (2SHA); constitutively active RhoC mutant
- Measurement description: binding kinetics, method not stated (Table 1)

Binder | U | kon
B6 hs2dAb (VHH, also called hs2dAb B6) VHH: VQLQASGGGFVQPGGSLRLSCAASGYGSTIETMGWFRQAPGKEREFVSAISRAPGPSQYYADSVKGRFTISRDNSKNTVYLQMNSLRAEDTATYYCAPINNRTMQDSMFLWNYWGQGTQVTVSS | M⁻¹ s⁻¹ | 1.45e+06
5SNP48 hs2dAb (VHH) VHH: VQLQASGGGFVQPGGSLRLSCAASGTSWFTEVMGWFRQAPGKEREFVSAISGLHDVGTYYADSVKGRFTISRDNSKNTVYLQMNSLRAEDTATYYCAALDKWYTKAMDARKDYWGQGTQVTVSS | M⁻¹ s⁻¹ | 1.72e+06
4SNP61 hs2dAb (VHH) VHH: VQLQASGGGFVQPGGSLRLSCAASGFTSTSTVMGWFRQAPGKEREFVSAISSAHTMDTYYADSVKGRFTISRDNSKNTVYLQMNSLRAEDTATYYCAPAPMLGQMITQPALPYWGQGTQVTVSS | M⁻¹ s⁻¹ | 875000
5SNP65 hs2dAb (VHH) VHH: VQLQASGGGFVQPGGSLRLSCAASGATYEGEAMGWFRQAPGKEREFVSAISSYPSVISYYADSVKGRFTISRDNSKNTVYLQMNSLRAEDTATYYCAYWVNHEGTIREIYWGQGTQVTVSS | M⁻¹ s⁻¹ | 1.71e+06

All values here come from patent US20180022794A1.
